assay: fluorescence interference in NS3h assay format, artefact control for HCV NS3 helicase inhibitor project, biochemical, NIH Clinical Collection (AID 743272); conditions: fluorescence interference counterscreen, stronger effect = lower value;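 note: HCV NS3 helicase with a Cy5 labelled single stranded DNA probe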
The source made the active and inactive calls. The rule behind the calls is not given here.
Entries annotated with measured fluorescence ratio
Metric Name: fluorescence ratio

[[record]]
compound = "CC(C)C1CCC(C(=O)N[C@H](Cc2ccccc2)C(=O)O)CC1 (some centres undefined)"
metric_name = "fluorescence ratio"
test_value = "0.74 (active)"

[[record]]
compound = "CC(=O)OCC(=O)[C@@]12OC(C)(C)O[C@@H]1C[C@H]1[C@@H]3C[C@H](F)C4=CC(=O)C=C[C@]4(C)[C@@]3(F)[C@@H](O)C[C@@]12C"
metric_name = "fluorescence ratio"
test_value = "1.01 (inactive)"

[[record]]
compound = "COc1ccc(OC)c(C(O)CNC(=O)CN)c1 (centres undefined)"
metric_name = "fluorescence ratio"
test_value = "1.02 (inactive)"

[[record]]
compound = "CC1(C)O[C@@H]2C[C@H]3[C@@H]4CCC5=CC(=O)C=C[C@]5(C)[C@@]4(F)[C@@H](O)C[C@]3(C)[C@]2(C(=O)CO)O1"
metric_name = "fluorescence ratio"
test_value = "0.99 (inactive)"

